Study the reported Ki values for D(2) dopamine receptor (Rattus norvegicus) given below; they originate from different publications.
Outcome measure: Ki (nM)

Illustrative cases are given below, each with its answer.
> print(dat)
                                   molecule  endpoint.value
1  O=C(NC/C=C/CN1CCN(c2cccc(Cl)c2Cl)CC1)c1ccc2c(c1)Cc1ccccc1-2             198
2  CCCN(CCN1CCN(c2ccc3[nH]ccc3c2)CC1)C1CCc2c(O)cccc2C1 (configuration not stated)            76.4
3  CN1CCc2ccc(OCC(O)CN3CCC(c4noc5cc(F)ccc45)CC3)cc2C1=O (configuration not stated)            1240
4  COc1cc2c3c(c1)N(C)CCN3[C@H]1CCN(CCCC(=O)c3ccc(F)cc3)C[C@@H]21              46
5  CCCN(CCCCCCN(CCC)[C@H]1CCc2c(O)cccc2C1)[C@H]1CCc2c(O)cccc2C1             5.9
6  CCCN(CCN1CCN(c2ccc(-c3ccccc3OC)cc2)CC1)C1CCc2nc(N)sc2C1 (racemic)             274

1: Cc1cc(=O)oc2cc(OCCCCN3CCN(c4cccc(Cl)c4Cl)CC3)ccc12
2: N#Cc1ccc(N2CCN(CCC(=O)c3cc4c5c(c3)CCN5C(=O)CC4)CC2)c(F)c1
3: Cc1c(C)c2ccc(OCCCCN3CCC(c4noc5cc(F)ccc45)CC3)cc2oc1=O
4: C#CCN(CCN1CCN(c2cccc(Cl)c2Cl)CC1)C1CCc2nc(N)sc2C1 (configuration not stated)
5: O=C(NC/C=C\CN1CCN(c2cccc(Cl)c2Cl)CC1)c1ccc2c(c1)Cc1ccccc1-2
Query string: Reorder: Ki, max to min. Quick reminder: the answer is the labels in the order asked.
Result string: 1, 2, 5, 4, 3

I: CCCN(CCN1CCN(c2ccccc2OC)CC1)C1CCc2cc3[nH]c(=O)[nH]c3cc2C1 (configuration not stated)
II: O=C1CCc2cc(CCCCN3CCC(c4noc5cc(F)ccc45)CC3)cc3c2N1CCC3
Query string: Please tell me which of the two, I or II , has the higher reported Ki value. Which one? Tell me its label.
Result string: I
